The reported measurements were obtained from ChEMBL document CHEMBL2375225.

- MEASURED ON: Sodium-dependent serotonin transporter (Rattus norvegicus)
- Sequence (P31652 whole entry): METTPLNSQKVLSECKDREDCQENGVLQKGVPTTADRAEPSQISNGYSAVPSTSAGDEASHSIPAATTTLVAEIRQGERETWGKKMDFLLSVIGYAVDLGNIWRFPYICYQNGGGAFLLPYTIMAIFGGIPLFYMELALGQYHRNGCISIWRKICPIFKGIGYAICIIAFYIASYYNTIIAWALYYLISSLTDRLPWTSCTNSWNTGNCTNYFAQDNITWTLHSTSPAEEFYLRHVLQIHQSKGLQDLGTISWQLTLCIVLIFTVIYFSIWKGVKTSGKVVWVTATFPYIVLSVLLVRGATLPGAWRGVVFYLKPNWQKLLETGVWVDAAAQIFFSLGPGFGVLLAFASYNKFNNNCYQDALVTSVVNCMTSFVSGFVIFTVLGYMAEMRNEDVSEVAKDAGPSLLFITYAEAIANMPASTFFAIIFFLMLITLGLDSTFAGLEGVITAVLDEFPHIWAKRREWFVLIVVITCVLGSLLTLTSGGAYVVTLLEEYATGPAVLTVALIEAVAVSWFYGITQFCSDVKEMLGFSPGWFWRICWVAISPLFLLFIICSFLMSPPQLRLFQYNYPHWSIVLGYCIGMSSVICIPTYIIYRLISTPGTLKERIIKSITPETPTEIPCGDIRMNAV
OBSERVATION TYPE: IC50

A selection of reference data follows.
Problem: Give IC50 (Sodium-dependent serotonin transporter (Rattus norvegicus)) of the following molecule: `Cc1[nH]c2ccc(OS(=O)(=O)C(F)(F)F)cc2c1C1=CCNCC1`
Solution: > 1000 nM

Problem: Give IC50 (Sodium-dependent serotonin transporter (Rattus norvegicus)) of the following molecule: `Cc1[nH]c2ccc(Br)cc2c1C1=CCNCC1`
Solution: 4800 nM

Problem: Give IC50 (Sodium-dependent serotonin transporter (Rattus norvegicus)) of the following molecule: `Cc1[nH]c2ccccc2c1C1=CCNCC1`
Solution: > 1000 nM

Provide reported IC50 for each item, in the same order as listed.
1. Cc1[nH]c2ccc(-c3ccccc3)cc2c1C1=CCNCC1
2. Cc1[nH]c2ccc(F)cc2c1C1=CCNCC1
3. Cc1[nH]c2ccc([N+](=O)[O-])cc2c1C1=CCNCC1
4. Cc1[nH]c2ccc(-c3ccsc3)cc2c1C1=CCNCC1

Solution:
1. > 1000 nM
2. 1900 nM
3. > 1000 nM
4. > 1000 nM

###

- MEASURED ON: 5-hydroxytryptamine receptor 4 (Cavia porcellus, UniProt O70528)
- Sequence (O70528 whole entry): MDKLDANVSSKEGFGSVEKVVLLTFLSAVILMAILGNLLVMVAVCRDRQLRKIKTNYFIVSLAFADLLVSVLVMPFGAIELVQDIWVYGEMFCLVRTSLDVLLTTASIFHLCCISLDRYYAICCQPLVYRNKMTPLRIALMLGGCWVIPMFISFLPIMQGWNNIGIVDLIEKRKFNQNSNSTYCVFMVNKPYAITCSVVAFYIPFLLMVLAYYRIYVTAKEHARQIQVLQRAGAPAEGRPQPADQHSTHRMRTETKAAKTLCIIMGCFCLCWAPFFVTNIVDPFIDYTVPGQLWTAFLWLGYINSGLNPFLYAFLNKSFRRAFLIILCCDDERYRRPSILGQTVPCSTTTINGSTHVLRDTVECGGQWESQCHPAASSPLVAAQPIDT
OBSERVATION TYPE: pIC50
One number for each entry, as −log10 of the molar value.

Problem: Name the recorded pIC50 for `Cc1[nH]c2ccccc2c1C1=CCNCC1` .
Solution: 6.00

###

- MEASURED ON: 5-hydroxytryptamine receptor 6 (Homo sapiens)
- PROTOCOL DETAILS: Partial agonist activity at human 5HT6 receptor expressed in BHK cells assessed as stimulation of cAMP production after 45 minutes relative to control
- Format: functional, cell-based
Lab note: compare Activity with 60%, writing fulfilled if less and not fulfilled if equal or more.

Would you please look over these solved cases?
Problem: Here's an entry: `CSc1ccc2[nH]c(C)c(C3=CCNCC3)c2c1` . Is its Activity below 60%?
Solution: fulfilled

Problem: Here's an entry: `N#Cc1ccc2[nH]cc(C3=CCNCC3)c2c1` . Is its Activity below 60%?
Solution: fulfilled

Problem: Here's an entry: `Cc1[nH]c2ccc(OS(=O)(=O)C(F)(F)F)cc2c1C1=CCNCC1` . Is its Activity below 60%?
Solution: not fulfilled

Problem: Here's an entry: `Cc1[nH]c2ccc([N+](=O)[O-])cc2c1C1=CCNCC1` . Is its Activity below 60%?
Solution: fulfilled

API: the following record is the query input.
Problem: Here's an entry: `Cc1[nH]c2ccccc2c1C1=CCNCC1` . Is its Activity below 60%?
Solution: not fulfilled

###

- MEASURED ON: 5-hydroxytryptamine receptor 6 (Homo sapiens, UniProt P50406)
- Sequence (P50406 whole entry): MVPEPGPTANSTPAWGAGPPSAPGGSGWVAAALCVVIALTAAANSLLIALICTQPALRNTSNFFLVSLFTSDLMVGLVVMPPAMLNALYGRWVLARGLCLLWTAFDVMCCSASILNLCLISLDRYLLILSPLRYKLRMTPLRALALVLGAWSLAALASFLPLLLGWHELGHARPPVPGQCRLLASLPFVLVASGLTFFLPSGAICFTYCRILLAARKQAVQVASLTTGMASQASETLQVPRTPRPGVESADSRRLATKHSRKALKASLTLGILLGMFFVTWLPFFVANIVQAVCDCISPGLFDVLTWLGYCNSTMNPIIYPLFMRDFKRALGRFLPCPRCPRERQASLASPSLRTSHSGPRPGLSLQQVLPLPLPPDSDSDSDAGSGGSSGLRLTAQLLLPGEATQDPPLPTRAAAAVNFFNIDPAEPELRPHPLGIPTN
- PROTOCOL DETAILS: Partial agonist activity at human 5HT6 receptor expressed in BHK cells assessed as stimulation of cAMP production after 45 minutes
- Type: functional, cell-based
pEC50: −log10 of the molar value.
I would appreciate it if you labelled entries Criterion met when pEC50 is 7 or higher, otherwise Criterion not met.

Would you please look over these solved cases?
Problem: Textbook exercise: given the entry `Cc1[nH]c2ccc(NS(=O)(=O)c3ccccc3)cc2c1C1=CCNCC1` , state whether its pEC50 is greater than or equal to 7.
Solution: Criterion met

Problem: Textbook exercise: given the entry `Cc1[nH]c2ccc(OS(=O)(=O)C(F)(F)F)cc2c1C1=CCNCC1` , state whether its pEC50 is greater than or equal to 7.
Solution: Criterion met

Problem: Textbook exercise: given the entry `Cc1[nH]c2ccccc2c1C1=CCNCC1` , state whether its pEC50 is greater than or equal to 7.
Solution: Criterion not met

Problem: Textbook exercise: given the entry `Cc1[nH]c2ccc([N+](=O)[O-])cc2c1C1=CCNCC1` , state whether its pEC50 is greater than or equal to 7.
Solution: Criterion met

API: the following record is the query input.
Problem: Textbook exercise: given the entry `CSc1ccc2[nH]c(C)c(C3=CCNCC3)c2c1` , state whether its pEC50 is greater than or equal to 7.
Solution: Criterion met
